molecular target: Mitogen-activated protein kinase kinase kinase kinase 1 (Homo sapiens, UniProt Q92918); experiment: Inhibition of HPK1 (unknown origin) using myelin basic protein as substrate incubated for 60 mins in presence of ATP by ADP-Glo kinase assay
Sequence (Q92918 whole entry): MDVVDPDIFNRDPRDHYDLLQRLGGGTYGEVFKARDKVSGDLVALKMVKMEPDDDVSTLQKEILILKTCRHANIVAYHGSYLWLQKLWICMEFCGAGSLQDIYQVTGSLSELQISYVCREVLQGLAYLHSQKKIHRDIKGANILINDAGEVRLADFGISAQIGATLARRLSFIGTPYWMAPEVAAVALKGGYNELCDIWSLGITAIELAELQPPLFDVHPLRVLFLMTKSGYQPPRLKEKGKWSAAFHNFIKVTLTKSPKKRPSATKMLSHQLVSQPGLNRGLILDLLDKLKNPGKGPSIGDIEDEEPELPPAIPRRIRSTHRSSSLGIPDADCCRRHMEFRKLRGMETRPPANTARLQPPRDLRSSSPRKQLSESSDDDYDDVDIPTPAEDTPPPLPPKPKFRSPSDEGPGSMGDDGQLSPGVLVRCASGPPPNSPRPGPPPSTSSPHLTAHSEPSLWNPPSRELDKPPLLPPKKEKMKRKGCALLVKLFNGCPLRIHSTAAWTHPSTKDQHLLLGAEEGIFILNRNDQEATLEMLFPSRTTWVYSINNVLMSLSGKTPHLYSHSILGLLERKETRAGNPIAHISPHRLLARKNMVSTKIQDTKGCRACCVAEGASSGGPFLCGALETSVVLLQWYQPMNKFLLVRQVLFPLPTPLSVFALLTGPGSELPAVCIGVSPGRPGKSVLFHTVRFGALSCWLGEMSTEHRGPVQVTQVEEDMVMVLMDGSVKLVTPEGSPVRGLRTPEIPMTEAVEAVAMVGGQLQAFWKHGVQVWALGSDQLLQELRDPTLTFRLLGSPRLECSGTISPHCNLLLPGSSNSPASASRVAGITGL
pIC50: −log10 of the molar value.
measured.parameter: pIC50

Cc1c(-c2cc(N)c3cnc(Nc4ccccc4)nc3c2)cnc2c1NCCO2 | 8.21
CCn1cc(Nc2ncc3c(N)cc(-c4cnc5c(c4C)NCCO5)cc3n2)cn1 | 7.92
Cc1c(-c2cc(N)c3cnc(Nc4cnn(C)c4)nc3c2)cnc2c1NCCO2 | 8.11

(1) Nc1cc(-c2cccnc2)cc2nc(Nc3cnn(C4CC4)c3)ncc12
(2) Cc1c(-c2cc(N)c3cnc(Nc4cnn(C5CC5)c4)nc3c2)cnc2c1NCCO2
(3) CCn1ccc(Nc2ncc3c(N)cc(-c4cnc5c(c4C)NCCO5)cc3n2)n1
Sort the 3 compounds by pIC50; largest first, smallest last. Respond with an ordered listing of the labels, as requested. 2, 3, 1

(I) CCN1CCc2ccc(Nc3ncc4c(N)cc(-c5cnc6c(c5C)NCCO6)cc4n3)cc2C1
(II) Cc1c(-c2cc(N)c3cnc(Nc4cnn(C)c4C)nc3c2)cnc2c1NCCO2
Endpoint returns whichever of I and II has the numerically higher pIC50. // respond with label for picked entry I
